The origin of these recorded values is patent US20190374533A1.

# Test system: fecal water content
# experiment_description: Pharmacodynamic model: effect of test compounds on fecal water content
# Type: in vivo, rat
# condition: female Sprague Dawley rats, 3 mg/kg oral, feces collected 16 hrs, mean of 6
Counter-ions that a name gives are not always drawn.
Examples of compounds with documented % Fecal water follow.
Entry rule: numbers only, all in %.

Q: Provide value of % Fecal water for this record tested with fecal water content: CN1Cc2c(Cl)cc(Cl)cc2[C@H](c2cccc(S(=O)(=O)NCCOCCOCCNC(=O)Nc3ccc(NC(=O)NCCOCCOCCNS(=O)(=O)c4cccc([C@@H]5CN(C)Cc6c(Cl)cc(Cl)cc65)c4)cc3)c2)C1 (single isomer, unassigned) [Example 203, bis-hydrochloride salt]
Result: 61

Q: Now this one: CN1Cc2c(Cl)cc(Cl)cc2C(c2ccc(S(=O)(=O)NCCOCCOCCNC(=O)COCC(=O)NCCOCCOCCNS(=O)(=O)c3ccc(C4CN(C)Cc5c(Cl)cc(Cl)cc54)cc3)cc2)C1 (stereo not shown) [Example 178]
Result: 59

Q: Now this one: CN1Cc2c(Cl)cc(Cl)cc2[C@H](c2cccc(S(=O)(=O)NCCOCCOCCOCCNC(=O)NCCCCNC(=O)NCCOCCOCCOCCNS(=O)(=O)c3cccc([C@@H]4CN(C)Cc5c(Cl)cc(Cl)cc54)c3)c2)C1 (single isomer, unassigned) [Example 244]
Result: 61

Q: Now this one: CN1Cc2c(Cl)cc(Cl)cc2C(c2cccc(S(=O)(=O)NCCOCCOCCOCCNC(=O)C(O)C(O)C(=O)NCCOCCOCCOCCNS(=O)(=O)c3cccc(C4CN(C)Cc5c(Cl)cc(Cl)cc54)c3)c2)C1 (single isomer, unassigned) [Example 224]
Result: 65

###

# experiment_description: Determination of compound Cmax and AUC
# Format: in vivo
# condition: rat; Sprague-Dawley rats, oral gavage, serum 0.5-4 h; actual oral dose (mg/kg) given
readout_label: AUC

Q: Endpoint output: AUC of CN1Cc2c(Cl)cc(Cl)cc2C(c2cccc(S(=O)(=O)NCCOCCOCCOCCNC(=O)C(O)C(O)C(=O)NCCOCCOCCOCCNS(=O)(=O)c3cccc(C4CN(C)Cc5c(Cl)cc(Cl)cc54)c3)c2)C1 (stereo not drawn) . Value?
Result: < 2 ng·h/mL

Q: Now this one: CN1Cc2c(Cl)cc(Cl)cc2[C@H](c2cccc(S(=O)(=O)NCCOCCOCCOCCNC(=O)Nc3ccc(NC(=O)NCCOCCOCCOCCNS(=O)(=O)c4cccc([C@@H]5CN(C)Cc6c(Cl)cc(Cl)cc65)c4)cc3)c2)C1 (single isomer, unassigned)
Result: < 2 ng·h/mL

Q: Now this one: CN1Cc2c(Cl)cc(Cl)cc2C(c2cccc(S(=O)(=O)NCCOCCOCCOCCNC(=O)c3ccccc3C(=O)NCCOCCOCCOCCNS(=O)(=O)c3cccc(C4CN(C)Cc5c(Cl)cc(Cl)cc54)c3)c2)C1 (stereo not drawn)
Result: < 5 ng·h/mL

###

Examples of molecules with documented IC50 follow.
# study_system: rat NHE-3 (Rattus norvegicus)
# Construct: expressed in transfected cells; host or cells: Opossum kidney (OK) cells (ATCC), electroporated
# Sequence (P26433 29-831): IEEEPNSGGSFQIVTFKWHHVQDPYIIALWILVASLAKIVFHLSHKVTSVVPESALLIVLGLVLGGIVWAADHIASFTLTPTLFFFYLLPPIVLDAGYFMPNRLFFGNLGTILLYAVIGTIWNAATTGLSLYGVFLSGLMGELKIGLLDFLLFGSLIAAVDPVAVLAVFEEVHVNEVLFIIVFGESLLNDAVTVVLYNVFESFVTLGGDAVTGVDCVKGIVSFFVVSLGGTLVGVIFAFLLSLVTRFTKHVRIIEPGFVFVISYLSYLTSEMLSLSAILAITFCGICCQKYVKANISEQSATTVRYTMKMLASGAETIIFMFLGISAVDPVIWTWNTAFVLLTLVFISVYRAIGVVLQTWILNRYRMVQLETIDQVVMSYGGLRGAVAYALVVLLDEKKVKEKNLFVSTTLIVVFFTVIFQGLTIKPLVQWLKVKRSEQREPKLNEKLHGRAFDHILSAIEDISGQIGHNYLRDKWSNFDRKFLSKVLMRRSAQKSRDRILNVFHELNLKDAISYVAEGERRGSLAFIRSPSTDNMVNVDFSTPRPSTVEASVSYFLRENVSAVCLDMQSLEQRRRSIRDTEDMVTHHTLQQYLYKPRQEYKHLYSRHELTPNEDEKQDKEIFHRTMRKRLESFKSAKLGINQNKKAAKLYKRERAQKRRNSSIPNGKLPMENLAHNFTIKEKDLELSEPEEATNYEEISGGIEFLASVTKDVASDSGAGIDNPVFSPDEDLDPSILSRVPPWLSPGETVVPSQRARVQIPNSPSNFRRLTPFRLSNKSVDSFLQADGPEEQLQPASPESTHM
# experiment_description: Cell-based assay of NHE-3 activity (Pharmacological Test Example 1)
# condition: OK cells expressing rat NHE-3; 0-30 uM test compound, 5 uM EIPA; read-out: rat NHE-3 Average pIC50 (converted)
Counter-ions that a name gives are not always drawn.

Q: Endpoint output: IC50 of CN1Cc2c(Cl)cc(Cl)cc2[C@H](c2ccc(S(=O)(=O)NCCOCCOCCNC(=O)CCC(=O)NCCOCCOCCNS(=O)(=O)c3ccc([C@@H]4CN(C)Cc5c(Cl)cc(Cl)cc54)cc3)cc2)C1 (single isomer, unassigned) [Example 200, bis-hydrochloride salt] . Value?
Result: < 100 nM

Q: Now this one: C/C(=C\c1cc(F)c(Oc2ccc(S(=O)(=O)NCCOCCOCCOCCNC(=O)[C@H](O)[C@@H](O)C(=O)NCCOCCOCCOCCNS(=O)(=O)c3ccc(Oc4c(F)cc(/C=C(\C)C(=O)N=C(N)N)cc4F)cc3)cc2)c(F)c1)C(=O)N=C(N)N
Result: < 100 nM

Q: Now this one: CN1Cc2c(Cl)cc(Cl)cc2[C@H](c2ccc(S(=O)(=O)NCCOCCOCCOCCNC(=O)C(O)C(O)C(=O)NCCOCCOCCOCCNS(=O)(=O)c3ccc([C@@H]4CN(C)Cc5c(Cl)cc(Cl)cc54)cc3)cc2)C1 (single isomer, unassigned)
Result: 100 to 1000 nM
